These measurements were taken from paper PMC9323422.

The compounds below have reported pKi for Recombinant human PTP1B (Homo sapiens, UniProt P18031).
// pKi is dimensionless: -log10 of concentration (M)

[[record]]
compound = "NC(Cc1ccc(C(=O)[P-](F)(F)(F)(F)F)cc1)C(=O)O (centres unmarked)"
result = 4.28


Task item: Recorded pKi of NC(Cc1ccc(C(F)(F)[P-](F)(F)(F)(F)F)cc1)C(=O)O (centres unmarked) , please.
Reply: 4.21
